Listed substances paired with reported amyloid nucleation score
test: amyloid nucleation score (Sup35N fusion, yeast selection) (log enrichment); library NNK2; higher = more nucleation; inactive = no reads after selection;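 also: zero at mode of non-aggregating sequences after 7 days selection at 30°C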
Response field accepts a number only; no unit should be typed.

substance | amyloid nucleation score
IGKGRFNVYCMN | -0.64
LYFWPLTFRSGHCCGLSQVK | 1.16
EIVQFLLHMYGSVREAMVAL | -1.05
CLSVCCEDFNRSLTHYASSL | -0.743
YIIDRKEHFLSKCY | -0.738

**Q:** Which amyloid nucleation score value belongs to SGCWIGRFLSSGVSMKVHVS ?
**A:** 1.23

* * *

assay: amyloid nucleation score (Sup35N fusion, yeast selection) (log enrichment); library NNK3; higher = more nucleation; inactive = no reads after selection
measured-parameter: amyloid nucleation score

Consider the worked cases shown below.
substance | amyloid nucleation score
SMGRYDLLPTPDVVSLSYNM | inactive
MYREFYLNDQFNRPFPQSMD | inactive
SPVAYRSTWFVFRNNSHYDQ | inactive
QALTFIMWETDTSHGTCLNG | 1.46

**Q:** Which amyloid nucleation score value belongs to RCLMDMFHILPKKSGVFSIT ?
**A:** inactive

**Q:** Param item: SKWAFPYPA
**A:** inactive

**Q:** Param item: VAFSFYFNSILVSVTRIVGS
**A:** 0.773

**Q:** Param item: VHHLLELEQVHNKDGTF
**A:** inactive

**Q:** Param item: QYRRRVYDYVGCTRLWKNLW
**A:** -0.682

**Q:** Param item: EQRLSSGRWVS
**A:** inactive

**Q:** Param item: RKCRCYLTSFKDPALYLT
**A:** inactive

* * *

Listed substances paired with reported amyloid nucleation score
assay: amyloid nucleation score (Sup35N fusion, yeast selection) (log enrichment); library NNK2; higher = more nucleation; inactive = no reads after selection
Response field accepts a number only; no unit should be typed.

Consider the worked cases shown below.
substance | measured-parameter | val
CLRGSR | amyloid nucleation score | 0.03
FSGKMN | amyloid nucleation score | 0.301
CLVVHFPVCQQAKKDCDFRY | amyloid nucleation score | 4.53
QAGALFDKRQGLRYGWVVSM | amyloid nucleation score | -0.641
ARSDLNMRTFFVWASLFVLS | amyloid nucleation score | 4.43
LTRCMCPLGDIMRHKEKPEM | amyloid nucleation score | -1.25

Now look at this entry.
**Q:** Which amyloid nucleation score value belongs to NAKCNSTGKTCQFGCQYP ?
**A:** 1.51

* * *

experiment: amyloid nucleation score (Sup35N fusion, yeast selection) (log enrichment); library NNK2; higher = more nucleation; inactive = no reads after selection
measured-parameter: amyloid nucleation score

substance | amyloid nucleation score
FDPLTFFGHRYCMQDMQLSD | -0.027
RVYLFLELIRALSFRTNHCG | -0.245
GWCRYLKDLYI | -1.1
GPTNVIRTISRDTTIV | -0.646
MLVNRFGGVA | -0.402

**Q:** Which amyloid nucleation score value belongs to VINLDKLIFVLEDNCIVFWE ?
**A:** 6.37

**Q:** Param item: PYQMGSYKLACVQKRPWV
**A:** 0.929

**Q:** Param item: YYWASRLVMPCSNRWRLYLQ
**A:** -0.474

**Q:** Param item: HNGSNFGTWSQGSLRHVRAR
**A:** -0.023

**Q:** Param item: YYTQRAAFIWKVICKVDVYV
**A:** 2.46

**Q:** Param item: HCFALGR
**A:** 0.088

**Q:** Param item: LYLVEARVTLYILGPWVVSR
**A:** 0.927

**Q:** Param item: KADLRKHSLDIGSCADGIRI
**A:** 0.416

**Q:** Param item: SDCRWNCVSMEWIDPTHEDK
**A:** -0.518

**Q:** Param item: NNVANW
**A:** 0.569

**Q:** Param item: PTQVSDLDNLTDCPRGVLPC
**A:** -0.735

**Q:** Param item: QSLSSYHLNFSALRSVPWP
**A:** 0.043

**Q:** Param item: WHSTVSLWSHPFPHKATKEP
**A:** 0.256

**Q:** Param item: SGSRMFCVRHMIMSGGVLGS
**A:** -0.451

**Q:** Param item: FKFLADVVPWFSSRWSHLMM
**A:** -0.867

**Q:** Param item: MFGNTGLTSYYALTGTRWLY
**A:** -0.487

**Q:** Param item: LPTWYVLVPLMDYIYYLFKE
**A:** -0.536

**Q:** Param item: GNPTESG
**A:** 0.148
